Sourced from paper PMC11823594

Ratio of fCss,avg to Ki,app, DDC: recorded values
- tested-on: DDC (Mycobacteroides abscessus, UniProt B1MDJ1)
- Sequence (B1MDJ1 entry or part of it): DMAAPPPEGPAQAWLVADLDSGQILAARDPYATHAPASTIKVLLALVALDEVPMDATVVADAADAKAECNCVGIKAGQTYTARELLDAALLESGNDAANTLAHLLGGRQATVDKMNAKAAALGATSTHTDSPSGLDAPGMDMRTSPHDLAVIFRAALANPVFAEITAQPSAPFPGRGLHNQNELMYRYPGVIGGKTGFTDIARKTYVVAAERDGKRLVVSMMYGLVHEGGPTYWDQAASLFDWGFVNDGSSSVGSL
- protocol-text: Steady-state kinetics with nitrocefin (Ki,app);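 on Ratio of fCss,avg to Ki,app, DDC: Parenthesised value is the fCss,avg to Ki,app ratio where above 1 means target likely hit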
- Format: biochemical
- experimental-parameters: in parentheses in Table 3
Write the value as a bare number.

Record excerpt, results attached:
CCO/N=C(\C(=O)N[C@@H]1C(=O)N2C(C(=O)[O-])=C(Sc3nc(-c4cc[n+](C)cc4)cs3)CS[C@H]12)c1nsc(N)n1	0.3
C[C@@H](O)[C@H]1C(=O)N2C(C(=O)O)=C(S[C@H]3CC[S@@+]([O-])C3)S[C@H]12	0.1

q: # returns recorded Ratio of fCss,avg to Ki,app, DDC (system: DDC (Mycobacteroides abscessus, UniProt B1MDJ1)) for CC1=C[C@@H]2CN(C(=O)N2OS(=O)(=O)O)[C@@H]1C(N)=O
a: 1.6

q: Another molecule to check: C[C@@H](O)[C@H]1C(=O)N2C(C(=O)O)=C(SC3CN(C4=NCCS4)C3)[C@H](C)[C@H]12
a: 0.01

q: What do you have for NC(=O)[C@@H]1CC[C@@H]2CN1C(=O)N2OS(=O)(=O)O ?
a: 0.1

* * *

- tested-on: LDT4 (Mycobacterium abscessus, UniProt B1MKW1)
- Sequence (B1MKW1 entry or part of it): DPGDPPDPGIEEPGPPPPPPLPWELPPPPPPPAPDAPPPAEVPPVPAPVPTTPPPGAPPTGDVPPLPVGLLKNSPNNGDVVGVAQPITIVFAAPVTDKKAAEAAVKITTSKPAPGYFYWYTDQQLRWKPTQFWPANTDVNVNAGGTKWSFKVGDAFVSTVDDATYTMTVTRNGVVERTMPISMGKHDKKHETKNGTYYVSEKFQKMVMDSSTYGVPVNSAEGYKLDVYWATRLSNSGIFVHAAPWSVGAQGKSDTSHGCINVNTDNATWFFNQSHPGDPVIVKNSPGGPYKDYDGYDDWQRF
- protocol-text: Steady-state kinetics with nitrocefin (Ki,app)
- Type: biochemical
- experimental-parameters: in parentheses in Table 3
measure-name: Ratio of fCss,avg to Ki,app, LDT4

Reference set, count: 4
C[C@@H](O)[C@H]1C(=O)N2C(C(=O)O)=C(S[C@H]3CC[S@@+]([O-])C3)S[C@H]12 [Sulopenem, sulopenem]	1.1
NC(=O)[C@@H]1CC[C@@H]2CN1C(=O)N2OS(=O)(=O)O [Avibactam, avibactam]	< 0.02
CC1=C[C@@H]2CN(C(=O)N2OS(=O)(=O)O)[C@@H]1C(N)=O [Durlobactam, durlobactam]	6
CCO/N=C(\C(=O)N[C@@H]1C(=O)N2C(C(=O)[O-])=C(Sc3nc(-c4cc[n+](C)cc4)cs3)CS[C@H]12)c1nsc(N)n1 [Ceftaroline, ceftaroline]	0.1

q: Item C[C@@H](O)[C@H]1C(=O)N2C(C(=O)O)=C(SC3CN(C4=NCCS4)C3)[C@H](C)[C@H]12 [Tebipenem, tebipenem] with LDT4 (Mycobacterium abscessus, UniProt B1MKW1) - Ratio of fCss,avg to Ki,app, LDT4?
a: 2.4

q: How about C[C@@H](O)[C@H]1C(=O)N2C(C(=O)O)=C(SCCN=CN)C[C@H]12 [Imipenem, imipenem] ?
a: 3

* * *

- tested-on: BlaMab (Mycobacterium abscessus, UniProt B1MCI3)
- Sequence (B1MCI3 entry or part of it): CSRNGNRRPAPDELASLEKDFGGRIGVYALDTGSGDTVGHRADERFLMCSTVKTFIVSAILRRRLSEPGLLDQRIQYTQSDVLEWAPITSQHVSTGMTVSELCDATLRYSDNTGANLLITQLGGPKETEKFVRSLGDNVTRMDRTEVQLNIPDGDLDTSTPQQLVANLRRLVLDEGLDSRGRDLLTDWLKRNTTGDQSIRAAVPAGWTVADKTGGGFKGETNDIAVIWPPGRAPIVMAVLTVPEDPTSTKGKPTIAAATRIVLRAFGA
- protocol-text: Ki,app for the β-lactamase
- Format: biochemical
measure-name: pKi
Kindly note that pKi refers to -log10 of the concentration in mol/L and answer with the value alone.

q: Could you share which pKi value was measured for CCO/N=C(\C(=O)N[C@@H]1C(=O)N2C(C(=O)[O-])=C(Sc3nc(-c4cc[n+](C)cc4)cs3)CS[C@H]12)c1nsc(N)n1 ?
a: 3.17

* * *

- tested-on: PBP-lipo (Mycobacteroides abscessus, UniProt B1MDC3)
- Construct: made in house; host or cells: Escherichia coli BL21 (DE3)
- Sequence (B1MDC3 entry or part of it): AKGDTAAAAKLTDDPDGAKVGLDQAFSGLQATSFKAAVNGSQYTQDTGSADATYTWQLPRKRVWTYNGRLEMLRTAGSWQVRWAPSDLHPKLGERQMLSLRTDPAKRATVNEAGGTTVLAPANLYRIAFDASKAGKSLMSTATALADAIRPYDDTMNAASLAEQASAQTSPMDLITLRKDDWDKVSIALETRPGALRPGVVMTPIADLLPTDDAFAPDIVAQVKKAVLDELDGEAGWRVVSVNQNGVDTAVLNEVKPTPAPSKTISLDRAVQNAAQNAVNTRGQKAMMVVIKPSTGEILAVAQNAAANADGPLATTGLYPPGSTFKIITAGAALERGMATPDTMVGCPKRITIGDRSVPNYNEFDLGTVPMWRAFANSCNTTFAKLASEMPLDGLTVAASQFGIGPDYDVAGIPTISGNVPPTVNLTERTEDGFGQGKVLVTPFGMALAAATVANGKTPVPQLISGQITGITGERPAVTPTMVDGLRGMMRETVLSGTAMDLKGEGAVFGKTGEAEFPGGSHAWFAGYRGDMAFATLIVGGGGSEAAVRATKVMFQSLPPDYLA
- protocol-text: Steady-state kinetics with nitrocefin (Ki,app)
- Type: biochemical
- experimental-parameters: nitrocefin at 5 × Km; read-out: Ki,app PBP-lipo (converted)
Mark TRUE only for Ki values smaller than 2 µM; exact matches and larger values are FALSE.

C[C@@H](O)[C@H]1C(=O)N2C(C(=O)O)=C(S[C@H]3CC[S@@+]([O-])C3)S[C@H]12	TRUE
CC1(C)S[C@@H]2[C@H](NC(=O)[C@H](N)c3ccc(O)cc3)C(=O)N2[C@H]1C(=O)O	TRUE
C[C@@H](O)[C@H]1C(=O)N2C(C(=O)O)=C(SC3CN(C4=NCCS4)C3)[C@H](C)[C@H]12	FALSE

q: I wonder whether CO/N=C(\C(=O)N[C@@H]1C(=O)N2C(C(=O)O)=C(COC(N)=O)CS[C@H]12)c1ccco1 has Ki below 2 µM. Can you tell?
a: FALSE

q: Field entry: CC1=C[C@@H]2CN(C(=O)N2OS(=O)(=O)O)[C@@H]1C(N)=O
a: TRUE

q: Can you check NC(=O)[C@@H]1CC[C@@H]2CN1C(=O)N2OS(=O)(=O)O next?
a: FALSE
